FYI, the data here is from the RNAGym collection of RNA variant scans (doi:10.1073/pnas.2313332121).

B1: TPR 5TU (parent)
chain: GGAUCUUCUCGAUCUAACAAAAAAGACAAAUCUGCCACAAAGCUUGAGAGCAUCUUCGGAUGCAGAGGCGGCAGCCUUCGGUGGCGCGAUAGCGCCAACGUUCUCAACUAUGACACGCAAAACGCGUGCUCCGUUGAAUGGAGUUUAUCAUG

variants of: B1; test: polymerase ribozyme fitness, log enrichment relative to wild type (log ratio); higher = more active; in vitro selection for triplet polymerase activity
This sample holds only a part of the variants without activity.
quantity.name: polymerase ribozyme fitness (log ratio)

A106G A115U ... -1.05
U31G C123U ... 0.732
A115G U135A ... -2.48
U15A A39U C96U C114A A122G C123U C125A ... -4.11
A30G A150U ... -2.97
A40U C63U G70C ... -2.97
